Every entry's value here was drawn from patent US4493839A.

Here the recorded inhibition at 50 µg/mL is given for each entry.
measured_target: Human Polymorphonuclear Leukocyte Elastase (Homo sapiens)
Construct: Crude extract of human polymorphonuclear leukocytes (PMN) containing elastase activity; endogenous in cells; host or cells: human polymorphonuclear leukocytes (crude extract)
Sequence (P08246 30-247 limits assumed): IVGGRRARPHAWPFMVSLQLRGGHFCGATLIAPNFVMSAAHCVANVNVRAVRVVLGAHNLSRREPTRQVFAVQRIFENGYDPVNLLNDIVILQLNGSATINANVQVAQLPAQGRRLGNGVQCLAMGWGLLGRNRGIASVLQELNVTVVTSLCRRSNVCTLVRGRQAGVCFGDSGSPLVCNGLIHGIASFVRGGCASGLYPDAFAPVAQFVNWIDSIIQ
protocol_details: Enzyme assay for the inhibition of human polymorphonuclear leukocyte elastase via hydrolysis of N-t-Boc-alanyl-alanyl-prolylalanine-p-nitroanilide
Assay type: biochemical
study_conditions: Conc. 50 μg/ml; measured within 2 minutes; crude PMN extract, 0.2 mM Boc-AAPAN, pH 7.5
readout_kind: inhibition at 50 µg/mL (%)

- CC(O)C1C(=O)N2C(C(=O)OCc3ccc([N+](=O)[O-])cc3)=C(SCCO)CC12 (stereo not drawn): 95
- CC(O)C1C(=O)N2C(C(=O)OCc3ccc([N+](=O)[O-])cc3)=C(SCc3ccccc3)CC12 (stereo not drawn): 75
- O=C(OCc1ccccc1)C1=C(SCc2ccccc2)CC2C(CO)C(=O)N12 (stereo not drawn): 97
- CC=C1C(=O)N2C(C(=O)OCc3ccc([N+](=O)[O-])cc3)=C(SCCN3C(=O)c4ccccc4C3=O)CC12 (stereo not drawn): 73
- CC(NC(=O)OCc1ccccc1[N+](=O)[O-])C1C(=O)N2C(C(=O)OCc3ccccc3[N+](=O)[O-])=CCC12 (stereo not drawn): 82
- CC(OC(=O)OCc1ccccc1[N+](=O)[O-])C1C(=O)N2C(C(=O)OCc3ccccc3[N+](=O)[O-])=C(c3ccc(CN=[N+]=[N-])cc3)CC12 (stereo not drawn): 79
